# System: XF498
# measurement-notes: NCI tumour cell line growth inhibition, 48 h
Calls of active or inactive are those of the source. Rule as the data show it: active = GI50 up to about 1.1 µM and inactive = higher.
Lab note: assign the record to one of true (active), false (inactive)

Call for entry "Cc1cc(NS(=O)(=O)c2ccc(Nc3c4ccccc4nc4c(C(=O)NCCN(C)C)ccc(Cl)c34)cc2)no1" :
false

Call for entry CC[As](CC)SCC1OC(OC(C)=O)C(OC(C)=O)C(OC(C)=O)C1OC(C)=O (configuration not stated) :
false

Call for entry O=C(O[C@H]1[C@@H]2C=CO[C@@H](OC3OC(CO)C(O)C(O)C3O)[C@@H]2[C@@]2(CO)O[C@@H]12)c1ccc(O)c(O)c1 (some centres not stated) :
false

Call for entry O=C(O)C1CC2C=CCC(C2)C1 (configuration not stated) :
false

Call for entry COc1cc(C(=O)CC2OC(=O)C(Cl)=C2Cl)ccc1Cl (configuration not stated) :
false

Call for entry O=C1NC(O)n2c(=O)[nH]c(=O)n21 (configuration not stated) :
false

Call for entry "O=C1O[C@@H](c2ccccc2)C[C@@H]1CN1CCOCC1" :
false

Call for entry CN/N=C(/CCN1CCCC1)CC(c1ccccc1)c1c(O)c2ccccc2oc1=O (configuration not stated) :
false

Call for entry CNC(=O)N(CCCCC(NC(C)=O)C(=O)NCc1ccccc1)Cc1ccccc1 (configuration not stated) :
false

Call for entry "COc1cc2cc3c4c(cc(OC)c(OC)c4c2cc1OC)CCN3C(=O)CCC(=O)NCCCN(C)C" :
false

Call for entry "C1=CCN(c2ccccc2)CC1" :
false

Call for entry NC(=S)N/N=C1/C(=O)N(c2ccccc2)C(=O)C1C(=O)Nc1ccccc1 (configuration not stated) :
false

Call for entry COc1ccc(C2=C(Cl)c3cc(OC)c(OC)cc3C2Cl)cc1OC (configuration not stated) :
false

Call for entry "Cc1nc(Nc2ccccc2)sc1C(=O)CC(=O)C(=O)Nc1c(C(C)C)cccc1C(C)C" :
false

Call for entry O=C1[C@H]2ON(c3ccccc3)C(c3ccccc3F)[C@H]2C(=O)N1c1ccc(Cc2ccc(N3C(=O)[C@@H]4ON(c5ccccc5)C(c5ccccc5F)[C@@H]4C3=O)cc2)cc1 (some centres not stated) :
false

Call for entry N#CC1C[C@@H]2CC3(CCC2CN1C(=O)c1ccccc1)OCCO3 (some centres not stated) :
false

Call for entry "Cc1nc(C(N)=S)sc1C(=O)/C=C/c1c(O)ccc2ccccc12" :
false

Call for entry "Cc1c2ccncc2c(C)c2c1[nH]c1ccc(OCCN(C)C)cc12" :
true

Call for entry "COc1ccc2c(c1)c[n+](C)c1c3cc(OC)c(OC)cc3ccc21" :
false

Call for entry O=C1CCCCC1C1(O)C(=O)Nc2cc(F)ccc21 (configuration not stated) :
false

Call for entry "COc1ccc(/C=C/C(=O)c2sc(NC(=S)NC(=O)c3ccc(Cl)cc3)nc2C)cc1OC" :
false

Call for entry "O=C1CCCC/C1=C/C=C/c1ccccc1" :
false
